Test system: 292921-168-R-J2-PDC KRAS tumor spheroid viability;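 further: drug exposure lasted seven days after spheroids formed for three days; percent of DMSO vehicle control viability which is 100%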
Experiment: Anticancer human tumor 292921-168-R-J2-PDC patient-derived pancreatic carcinoma cell line growth inhibition [KRAS2]
Details: second compound 0.1 µM; first compound 0.316 µM; hits give low values; spheroids with HUVEC and MSC
From the text: Multicellular complex tumor spheroid response to RAS pathway inhibitors in combination with a targeted agents in patient-derived cell lines with oncogenic KRAS variants from multiple cancer types A high-throughput screen of multi-cell type tumor spheroids was designed to identify active combinations of targeted small molecules and KRAS pathway inhibitors. […] Compounds. […] If the clinical Cmax for an agent had not been determined, the highest concentration tested was 10 microM. […]
Measured Endpoint: viability, T/C (%)
The figure you give is taken to be in %; do not add the unit.

Some compounds with recorded viability, T/C:
>  <Compound>
CCN1CCN(Cc2ccc(Nc3ncc(F)c(-c4cc(F)c5nc(C)n(C(C)C)c5c4)n3)nc2)CC1 + C=CC(=O)N1CCN(c2nc(=O)n(-c3c(C)ccnc3C(C)C)c3nc(-c4c(O)cccc4F)c(F)cc23)C(C)C1

>  <Measured Endpoint>
viability, T/C

>  <Units Of Measure>
%

>  <Experimental Result>
30.5

$$$$
>  <Compound>
CC(=O)OC12COC1CC(O)C1(C)C(=O)C(O)C3=C(C)C(OC(=O)C(O)C(NC(=O)OC(C)(C)C)c4ccccc4)CC(O)(C(OC(=O)c4ccccc4)C21)C3(C)C (centres undefined) + COc1cc2nc(C)nc(NC(C)c3cc(N)cc(C(F)(F)F)c3)c2cc1OC1CCOC1

>  <Measured Endpoint>
viability, T/C

>  <Units Of Measure>
%

>  <Experimental Result>
12.1

$$$$

QUERY: Dear colleague, please send me the reported viability, T/C for CC1(C)CCC(CN2CCN(c3ccc(C(=O)NS(=O)(=O)c4ccc(NCC5CCOCC5)c([N+](=O)[O-])c4)c(Oc4cnc5[nH]ccc5c4)c3)CC2)=C(c2ccc(Cl)cc2)C1 + C=CC(=O)N1CCN(c2nc(OCC3CCCN3C)nc3c2CCN(c2cccc4cccc(C)c24)C3)CC1CC#N when you can.
RESULT: 100

QUERY: Look up and report measured viability, T/C for this entry: CC(C)NCC(C(=O)N1CCN(c2ncnc3c2C(C)CC3O)CC1)c1ccc(Cl)cc1 (centres undefined) + COc1cc2nc(C)nc(NC(C)c3cc(N)cc(C(F)(F)F)c3)c2cc1OC1CCOC1
RESULT: 78.8

The reported numbers originate from PubChem BioAssay AID1963870.
